Each item that follows carries a reported Vd.
assay: Plasma pharmacokinetics after IV CMS (Period 1); conditions: human, in vivo, iv, 2.5 mg/kg, Vdss, Period 1, Cohort 1: IV 2.5 mg/kg colistin base activity q12h x 2 doses; plasma after final dose; mean (SD); SD
Where a SMILES comes first, the peptide text is derived from it. Bridges are numbered along the chain shown (N, C = ends). [ ]: non-standard residue; d: D form. The star is where a group is joined. Heptanoyl(6-Me) = CC(C)CCCCC(=O)*; X1 = CC[C@H](C)CCCCC(=O)*; Dab = NCC[C@H](N)C(=O)O
# output: bare number, implied unit L

CC(C)CCCCC(=O)N[C@@H](CCN)C(=O)N[C@H](C(=O)N[C@@H](CCN)C(=O)N[C@H]1CCNC(=O)[C@H]([C@@H](C)O)NC(=O)[C@H](CCN)NC(=O)[C@H](CCN)NC(=O)[C@H](CC(C)C)NC(=O)[C@@H](CC(C)C)NC(=O)[C@H](CCN)NC1=O)[C@@H](C)O [colistin B] ({Heptanoyl(6-Me)}-[Dab]T[Dab][Dab][Dab][dL]L[Dab][Dab]T; lactam 4-C) : 26.3

Now consider a different compound.
Input line: Please report the recorded Vd for CC[C@H](C)CCCCC(=O)N[C@@H](CCN)C(=O)N[C@H](C(=O)N[C@@H](CCN)C(=O)N[C@H]1CCNC(=O)[C@H]([C@@H](C)O)NC(=O)[C@H](CCN)NC(=O)[C@H](CCN)NC(=O)[C@H](CC(C)C)NC(=O)[C@@H](CC(C)C)NC(=O)[C@H](CCN)NC1=O)[C@@H](C)O [colistin A] (X1-[Dab]T[Dab][Dab][Dab][dL]L[Dab][Dab]T; lactam 4-C) .
Output line: 29.5

###

test: clinical; conditions: human, in vivo, inhaled or intranasal, 75 mg, Vdss/F
Where a SMILES comes first, the peptide text is derived from it. Bridges are numbered along the chain shown (N, C = ends). [ ]: non-standard residue; d: D form. The star is where a group is joined. X1 = CC[C@H](C)CCCCC(=O)*; Dab = NCC[C@H](N)C(=O)O
VALUE TYPE: Vd/F (L)
# output: bare number, implied unit L

Input line: Please report the recorded Vd/F for CC[C@H](C)CCCCC(=O)N[C@@H](CCN)C(=O)N[C@H](C(=O)N[C@@H](CCN)C(=O)N[C@H]1CCNC(=O)[C@H]([C@@H](C)O)NC(=O)[C@H](CCN)NC(=O)[C@H](CCN)NC(=O)[C@H](CC(C)C)NC(=O)[C@@H](CC(C)C)NC(=O)[C@H](CCN)NC1=O)[C@@H](C)O [colistin A] (X1-[Dab]T[Dab][Dab][Dab][dL]L[Dab][Dab]T; lactam 4-C) .
Output line: 98.7

###

test: clinical; settings: human, in vivo, inhaled or intranasal, 75 mg, CL/F
Where a SMILES comes first, the peptide text is derived from it. Bridges are numbered along the chain shown (N, C = ends). [ ]: non-standard residue; d: D form. The star is where a group is joined. X1 = CC[C@H](C)CCCCC(=O)*; Dab = NCC[C@H](N)C(=O)O
VALUE TYPE: CL/F (mL/min)
# output: bare number, implied unit mL/min

Input line: Please report the recorded CL/F for CC[C@H](C)CCCCC(=O)N[C@@H](CCN)C(=O)N[C@H](C(=O)N[C@@H](CCN)C(=O)N[C@H]1CCNC(=O)[C@H]([C@@H](C)O)NC(=O)[C@H](CCN)NC(=O)[C@H](CCN)NC(=O)[C@H](CC(C)C)NC(=O)[C@@H](CC(C)C)NC(=O)[C@H](CCN)NC1=O)[C@@H](C)O [colistin A] (X1-[Dab]T[Dab][Dab][Dab][dL]L[Dab][Dab]T; lactam 4-C) .
Output line: 136
